The values you see were collected from ChEMBL document CHEMBL2331454.

# system_name: Soluble epoxide hydrolase (Homo sapiens)
# protocol: Inhibition of human recombinant soluble epoxide hydrolase expressed in Escherichia coli after 30 mins by PHOME-based fluorescence assay
pIC50: −log10 of the molar value.
property_name: pIC50

Recorded results for 5 compounds are shown here.
COc1cc(-c2nc3ccc(F)cn3c2NC2CCCC2)ccc1OCCCNC(=O)Nc1ccc(C(F)(F)F)cc1; 6.32
COc1cc(-c2nc3ccc(C)cn3c2NC2CCCCC2)ccc1OCCCNC(=O)Nc1ccc(C(F)(F)F)cc1; 6.36
COc1cc(-c2nc3ccc(Cl)cn3c2NC(C)C)ccc1OCCCNC(=O)Nc1ccc(C(F)(F)F)cc1; 6.36
COc1cc(-c2nc3ccc(C)cn3c2NC(C)C)ccc1OCCCNC(=O)Nc1ccc(C(F)(F)F)cc1; 6.21
COc1cc(-c2nc3ccc(F)cn3c2NC2CCCCC2)ccc1OCCCNC(=O)Nc1ccc(OC(F)(F)F)cc1; 6.16

A = COc1cc(-c2nc3ccc(C)cn3c2NC2CCCC2)ccc1OCCCNC(=O)Nc1ccc(OC(F)(F)F)cc1
B = Cc1ccc2nc(-c3ccc(OCCCNC(=O)Nc4ccc(C(F)(F)F)cc4)c(Cl)c3)c(NC3CCCCC3)n2c1
C = COc1ccc(-c2nc3ccc(C)cn3c2NC2CCCCC2)cc1OCCCNC(=O)Nc1ccc(OC(F)(F)F)cc1
// sort entries: pIC50, high to low Provide your answer as the labels ordered per the instruction.
B, A, C
